experiment: probe aXIP binding to arrayed compounds – biochemical, NeuroSMM set, 635/667 nm fluorescence, primary screen (AID 1119); settings: small-molecule microarray, higher = more signal, called active from +8 up or from −8 down;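 note: probe is the protein aXip251-270 applied at 1 µg/mL to compound-printed slides; binding of probe to printed compounds measured as 667 nm fluorescence plus signal to noise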
Lab note: class by composite Z-score, see low: < -0.2; moderate: ≥ -0.2 and < 0.2; high: ≥ 0.2

- compound: "O=C1C2C=CC(C(O)c3cc(C(F)(F)F)cc(C(F)(F)F)c3)N(Nc3ccccc3)C2C(=O)N1c1ccccc1 (stereo not given)"
  classification: "high"
- compound: "O=C(O)[C@@]1(CCS(=O)(=O)c2ccccc2)N=C(c2ccc(OCCCO)cc2)O[C@H]1c1ccccc1"
  classification: "low"
- compound: "COc1cc(CO)cc(I)c1O[C@H]1C=C(C(=O)NCCO)C[C@@H](NC[C@@H]2CCCO2)[C@@H]1O"
  classification: "low"
- compound: "C=CC[C@]1(C(=O)N2CCOCC2)N=C(c2ccc(OCCCO)cc2)O[C@H]1c1ccccc1N=[N+]=[N-]"
  classification: "moderate"
- compound: "CC(C)[Si](C#C[Si](C(C)C)(C(C)C)C(C)C)(O[C@H](C)c1cn(Cc2ccccc2)nn1)C(C)C"
  classification: "low"
- compound: "CC(C)NC(=O)[C@@H]1c2ccccc2C(=O)N(C(C)C)[C@H]1c1ccc(CO)cc1"
  classification: "moderate"
- compound: "C[N+](C)(C)CCCC[C@@H]1NC(=O)[C@H]2C[C@@H](C(=O)NCCCCCCNC(=O)CS)[C@@H](c3ccc(O)cc3)N2C1=O"
  classification: "low"
- compound: "COCCOC(=O)N1C(=O)[C@@]2(c3cc(C#CC4=CCCCC4)ccc31)[C@H](c1ccc(OCCO)cc1)N1[C@H](c3ccccc3)[C@H](c3ccccc3)OC(=O)[C@H]1[C@@H]2C(=O)N1CCc2cc(OC)c(OC)cc2C1"
  classification: "moderate"
- compound: "CC(C)C(=C=CC[C@H](O)c1ccc(CO)o1)CCO"
  classification: "high"
- compound: "NC(=O)NCC#Cc1ccc2c(c1)[C@]1(C(=O)N2)[C@H](C(=O)O)[C@H]2C(=O)O[C@H](c3ccccc3)[C@H](c3ccccc3)N2[C@@H]1c1ccc(O)cc1"
  classification: "moderate"
- compound: "CCCC=C(CCC)[C@@H](NS(=O)(=O)c1ccc(Cl)cc1)c1ccc(C(=O)OC)cc1"
  classification: "low"
- compound: "C=CCOC(=O)[C@H]1[C@@H]2C(=O)O[C@@H](c3ccccc3)[C@@H](c3ccccc3)N2[C@@H](c2ccc(OCCOC(=O)[C@H]3C[C@H]4C(=O)N[C@@H](CCCCN(C)C)C(=O)N4[C@H]3c3cccc(OCCO)c3)cc2)[C@]12C(=O)Nc1ccc(I)cc12"
  classification: "high"
- compound: "CCCCC(O)C1C=CC2C(=O)N(C)C(=O)C2N1N1CCCCC1 (stereo not given)"
  classification: "high"
- compound: "COC(=O)[C@@]1(Cc2ccccc2)[C@H]2c3cc(C(=O)N4CCCC4)n(Cc4ccc(O)c(OC)c4)c3C[C@H]2CN1C(=O)c1ccccc1"
  classification: "moderate"
- compound: "CCCNC(=O)[C@@H]1c2ccccc2C(=O)N(Cc2ccccc2OC)[C@H]1c1ccc(CO)cc1"
  classification: "low"

====

test: probe aLAP1 signal on lysate-treated microarray – cell lysate, small-molecule microarray, COS7 lysate, primary screen (AID 1124); details: probe aLAP1, fluorescence, higher = more signal;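 note: lysate comes from COS7 cells expressing LAP1 and is applied at 0.3 µg/mL; score merges spot fluorescence near 667 nm with signal-to-noise over triplicate slides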

- compound: "O=C1OCCC=C[C@H]2OC34C=CCN(CCN5CCOCC5)C(=O)[C@H]3N(CCCCCO)C(=O)[C@@H]4C12 (some centres undefined)"
  composite z-score: 1.48
- compound: "COC(=O)[C@H](Cc1ccccc1)N[C@H](/C=C/C1CC1)[C@@H](O)Cc1ccccc1"
  composite z-score: -0.309
- compound: "NCCCCCNC(=O)[C@H]1C[C@H]2C(=O)N[C@@H](Cc3ccccc3)C(=O)N2[C@H]1c1cccc(OCCO)c1"
  composite z-score: 1.07
- compound: "C#CCOc1ccc(C[C@@H](C(=O)OC)N(CC#C)[C@@H](/C=C/C2CC2)[C@H](O)Cc2ccccc2)cc1"
  composite z-score: 0.286

====

assay: optical density shifts of acrAB sulA E. coli – strain DRC41, OD650, 48 h, E. coli filamentation inducer project, primary screen (AID 1152); settings: higher = more signal, called active from +8 up or from −8 down;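 note: E. coli MC1000 strain DRC41 lacking acrAB efflux pump and sulA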
readout name: z-score

- compound: "Cc1ccc(S[C@]2(C(=O)NCC(C)C)CC(=O)N(Cc3cc(C(F)(F)F)cc(C(F)(F)F)c3)[C@@H]2c2ccc(CO)cc2)cc1"
  reported: -0.687
- compound: "O=C1O[C@@H](c2ccccc2)[C@@H](c2ccccc2)N2[C@@H](c3ccccc3OCCO)[C@]3(C(=O)Nc4ccccc43)[C@@H](C(=O)O)[C@H]12"
  reported: -0.749
- compound: "CC1CC/C=C\\[C@H]2OC34C=CCN(Cc5ccccc5)C(=O)[C@H]3N(C(C)CO)C(=O)[C@@H]4C2C(=O)O1 (stereo not given in full)"
  reported: 0.537
- compound: "OCC1C=C(/C=C/c2ccccc2)CN1Cc1ccccc1Br (stereo not given)"
  reported: 0.785
- compound: "COc1ccc(NN2C(C(O)c3ccc(N(C)C)cc3)C=CC3C(=O)N(C4CCCCC4)C(=O)C32)cc1 (stereo not given)"
  reported: -0.446
- compound: "CC(C)(C)OC(=O)CC[C@]1(C(=O)NCCN2CCOCC2)COC(c2ccc(OCCCO)cc2)=N1"
  reported: 1.04
- compound: "C=CCC(OC(C)=O)[C@@H]1[C@@H](N(Cc2cc3ccccc3o2)C(=O)Cc2ccc(OC)cc2)c2cc(OCCCO)ccc2N1C(=O)c1ccc2ccccc2c1 (stereo not given in full)"
  reported: -0.829
- compound: "CCOC(=O)C1=CC[C@@H](c2ccc(C(F)(F)F)cc2)N(S(=O)(=O)c2ccc(C)cc2)[C@H]1c1ccccc1"
  reported: -0.734
- compound: "O=C(CS)NCCCCCNC(=O)[C@@H]1C[C@@H]2C(=O)NCC(=O)N2[C@@H]1c1cccc(OCCO)c1"
  reported: 3.02
- compound: "COc1ccccc1CN1C(=O)c2ccccc2[C@@H](C(=O)NCc2ccccc2)[C@@H]1c1ccc(CO)cc1"
  reported: -0.0367
- compound: "C=CCOC(=O)[C@H]1[C@@H]2C(=O)O[C@@H](c3ccccc3)[C@@H](c3ccccc3)N2[C@@H](c2ccc(OCCOC(=O)[C@H]3C[C@H]4C(=O)N[C@@H](CCCCN(C)C)C(=O)N4[C@H]3c3cccc(OCCO)c3)cc2)[C@]12C(=O)Nc1ccc(I)cc12"
  reported: -1.61
- compound: "CCOc1ccc(N2C(=O)CSC2c2cccc([N+](=O)[O-])c2)cc1 (stereo not given)"
  reported: 0.379
- compound: "Cc1ccc([C@H]2C(C(=O)O)=CCN2S(=O)(=O)c2ccc(C)cc2)cc1"
  reported: -0.813
- compound: "CCOC(=O)C[C@H]1[C@H](OC(=O)c2ccc(-c3ccccc3)cc2)[C@@H](NC(=O)c2ccccc2)c2cc(OCCCO)ccc2N1C(=O)c1ccc2ccccc2n1"
  reported: -0.734
- compound: "OB1C=CCC(CCc2ccccc2)O1 (stereo not given)"
  reported: 3.28
- compound: "COc1ccc([Si](C)(C)[C@H]2[C@H](CCn3cc([C@H](O)c4ccccc4)nn3)O[C@@]3(C(=O)N(C)c4ccccc43)[C@@H]2C)cc1"
  reported: 0.294
- compound: "CCCCCCc1nc(-c2ccc(-c3ccc(Cl)c(Cl)c3)o2)c(C)c2c1[Si](C(C)C)(C(C)C)OC2"
  reported: -0.369
- compound: "COc1ccc([Si](C)(C)[C@H]2[C@H](CC(=O)N3CCC[C@H]3CO)O[C@@]3(C(=O)N(Cc4cccc(N5CCOC5=O)c4)c4ccccc43)[C@@H]2C)cc1"
  reported: 1.18
- compound: "CCCCN1CC=CC23O[C@@H]4C=CCCOC(=O)C4[C@H]2C(=O)N(CCCCCO)[C@@H]3C1=O (stereo not given in full)"
  reported: 0.4
- compound: "O=C(NCc1ccccc1)[C@@H]1c2ccccc2C(=O)N(C2Cc3ccccc3C2)[C@H]1c1ccc(CO)cc1"
  reported: -1.25
- compound: "CCOC(=O)C[C@H]1[C@H](OC(=O)c2cc3ccccc3oc2=O)[C@@H](NC(=O)CC(C)C)c2cc(OCCCO)ccc2N1C(=O)c1ccccc1"
  reported: 2.61
- compound: "[N-]=[N+]=Nc1ccccc1C[C@@]1(C(=O)N2CCCCC2)N=C(c2ccc(OCCCO)cc2)O[C@@H]1c1ccccc1N=[N+]=[N-]"
  reported: 0.0693
- compound: "O=C(CS)NCCCCCNC(=O)[C@@H]1C[C@@H]2C(=O)NCC(=O)N2[C@@H]1c1ccc(O)cc1"
  reported: 1.6
- compound: "O=C1OCCC=C[C@H]2OC34C=CCN(Cn5nnc6ccccc65)C(=O)[C@H]3N(CCO)C(=O)[C@@H]4C12 (stereo not given in full)"
  reported: 1.41
- compound: "COCC(=C=CC[C@H](O)c1cccc(OCCO)c1)CCO"
  reported: 0.223
- compound: "COCCOC(=O)N1C(=O)[C@@]2(c3ccccc31)[C@H](c1ccc(OCCO)cc1)N1[C@H](c3ccccc3)[C@H](c3ccccc3)OC(=O)[C@H]1[C@@H]2C(=O)N1CCc2cc(OC)c(OC)cc2C1"
  reported: 0.341
- compound: "COCCCNC(=O)[C@]1(Cc2ccccc2)N=C(c2ccc(OCCCO)cc2)O[C@@H]1c1ccccc1CN=[N+]=[N-]"
  reported: 1.41
- compound: "NC(=O)N1C(=O)C2C(C1=O)C1C=C(CCCO)C2C(C2CC2)N1Cc1cc2c(cc1Br)OCO2 (stereo not given)"
  reported: -0.766
- compound: "O=C1C[C@@](C(=O)NCc2ccccc2)(c2ccc([N+](=O)[O-])cc2)[C@@H](c2ccc(CO)cc2)N1CC12CC3CC(CC(C3)C1)C2"
  reported: 0.874
- compound: "COC(=O)[C@@]1(Cc2ccc(OC)cc2)[C@H]2c3cc(C(=O)N(C)C)n(Cc4ccc(C(F)(F)F)nc4)c3C[C@H]2CN1C(=O)c1ccccc1"
  reported: -0.346
